molecular target: Acetylcholinesterase (Electrophorus electricus); experiment: Competitive inhibition of electric eel AChE using acetylthiocholine iodide as substrate preincubated for 20 mins followed by substrate addition measured every 1 min for 30 mins by Dixon plot method
Sequence (O42275 whole entry): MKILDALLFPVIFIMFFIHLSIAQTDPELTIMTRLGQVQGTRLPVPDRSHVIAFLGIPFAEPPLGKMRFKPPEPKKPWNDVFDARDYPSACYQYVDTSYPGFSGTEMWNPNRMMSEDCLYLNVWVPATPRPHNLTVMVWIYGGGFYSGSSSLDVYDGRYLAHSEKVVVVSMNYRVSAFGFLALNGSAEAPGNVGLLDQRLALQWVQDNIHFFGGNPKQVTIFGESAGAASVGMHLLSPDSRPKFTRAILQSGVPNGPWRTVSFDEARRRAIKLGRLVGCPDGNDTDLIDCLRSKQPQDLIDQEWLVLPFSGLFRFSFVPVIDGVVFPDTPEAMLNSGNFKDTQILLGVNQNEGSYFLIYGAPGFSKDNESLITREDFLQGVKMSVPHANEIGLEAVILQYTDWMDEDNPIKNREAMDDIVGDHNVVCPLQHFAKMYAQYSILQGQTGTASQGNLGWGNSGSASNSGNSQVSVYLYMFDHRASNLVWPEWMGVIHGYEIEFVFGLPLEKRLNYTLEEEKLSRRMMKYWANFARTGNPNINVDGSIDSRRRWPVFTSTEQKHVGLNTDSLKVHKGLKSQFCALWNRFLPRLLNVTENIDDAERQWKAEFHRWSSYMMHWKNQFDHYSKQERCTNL
attribute_measured: pKi
Value format note: pKi is -log10 of concentration (mol/L); just state the number.

| chemical_smiles | pKi |
| --- | --- |
| CC(=O)[C@@H]1CC[C@]2(C(=O)OCc3ccccc3)CC[C@]3(C)[C@H](CC[C@@H]4[C@@]5(C)CC[C@H](O)C(C)(C)[C@@H]5CC[C@]43C)[C@@H]12 | 6.23 |
| COC(=O)[C@]12CC[C@@H]([C@H](C)NC(C)=O)[C@@H]1[C@H]1CC[C@@H]3[C@@]4(C)CC[C@H](OC(C)=O)C(C)(C)[C@@H]4CC[C@@]3(C)[C@]1(C)CC2 | 4.93 |
| CC(=O)O[C@H]1CC[C@]2(C)[C@H]3CC[C@@H]4[C@H]5[C@H]([C@@H](C)N)CC[C@]5(C(=O)OCc5ccccc5)CC[C@@]4(C)[C@]3(C)CC[C@H]2C1(C)C | 5.07 |
| CC(=O)[C@@H]1CC[C@]2(C(=O)OCc3ccccc3)CC[C@]3(C)[C@H](CC[C@@H]4[C@@]5(C)CC[C@H](N)C(C)(C)[C@@H]5CC[C@]43C)[C@@H]12 | 4.87 |

Could you now consider this next molecule?
Input: Fill in pKi for record CC(=O)[C@@H]1CC[C@]2(N)CC[C@]3(C)[C@H](CC[C@@H]4[C@@]5(C)CC[C@H](O)C(C)(C)[C@@H]5CC[C@]43C)[C@@H]12
Output: 4.68

###

biological target: Cholinesterase (Equus caballus); test: Competitive inhibition of equine serum BChE using butyrylthiocholine iodide as substrate preincubated for 20 mins followed by substrate addition measured every 1 min for 30 mins by Dixon plot method
Sequence (P81908 whole entry): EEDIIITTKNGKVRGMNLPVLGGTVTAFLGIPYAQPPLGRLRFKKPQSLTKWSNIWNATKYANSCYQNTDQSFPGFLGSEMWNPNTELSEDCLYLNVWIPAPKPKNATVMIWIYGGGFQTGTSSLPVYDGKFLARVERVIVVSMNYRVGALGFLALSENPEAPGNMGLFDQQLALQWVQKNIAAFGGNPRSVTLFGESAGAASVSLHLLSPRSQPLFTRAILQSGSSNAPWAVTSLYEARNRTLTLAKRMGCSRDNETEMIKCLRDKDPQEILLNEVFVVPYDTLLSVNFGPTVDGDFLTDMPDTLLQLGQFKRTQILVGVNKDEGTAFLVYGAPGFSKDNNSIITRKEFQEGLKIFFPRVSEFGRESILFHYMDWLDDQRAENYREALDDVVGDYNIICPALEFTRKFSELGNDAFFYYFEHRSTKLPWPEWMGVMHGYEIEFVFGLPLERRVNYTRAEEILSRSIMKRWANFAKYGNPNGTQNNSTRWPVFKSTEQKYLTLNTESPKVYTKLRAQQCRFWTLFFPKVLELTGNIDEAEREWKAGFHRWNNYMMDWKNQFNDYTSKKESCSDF
molecules and their reported pKi
Scale: negative log10 of molar concentration, which is what pKi denotes.

| chemical_smiles | pKi |
| --- | --- |
| CC(=O)[C@@H]1CC[C@]2(C(=O)OCc3ccccc3)CC[C@]3(C)[C@H](CC[C@@H]4[C@@]5(C)CC[C@@H](N)C(C)(C)[C@@H]5CC[C@]43C)[C@@H]12 | 5.74 |

Would you kindly look at the next entry?
Input: Provide one value: measured pKi of CC(=O)O[C@H]1CC[C@]2(C)[C@H]3CC[C@@H]4[C@H]5[C@H]([C@@H](C)N)CC[C@]5(C(=O)OCc5ccccc5)CC[C@@]4(C)[C@]3(C)CC[C@H]2C1(C)C
Output: 8.00

###

Let's look at some compounds and their measured Ratio Ki.
experiment: Selectivity ratio of Ki for equine serum BChE to Ki for electric eel AChE

Completed entries (count: 3):
| chemical_smiles | result |
| --- | --- |
| CC(=O)O[C@H]1CC[C@]2(C)[C@H]3CC[C@@H]4[C@H]5[C@H](C(C)=O)CC[C@]5(C(=O)NCCN)CC[C@@]4(C)[C@]3(C)CC[C@H]2C1(C)C | 3.9 |
| COC(=O)[C@]12CC[C@@H](C(C)=O)[C@@H]1[C@H]1CC[C@@H]3[C@@]4(C)CC[C@H](O)C(C)(C)[C@@H]4CC[C@@]3(C)[C@]1(C)CC2 | > 5 |
| CC(=O)O[C@H]1CC[C@]2(C)[C@H]3CC[C@@H]4[C@H]5[C@H](C(C)=O)CC[C@]5(C(=O)OCc5ccccc5)CC[C@@]4(C)[C@]3(C)CC[C@H]2C1(C)C | 368 |

Input: Consider the compound COC(=O)[C@]12CC[C@@H](NC(C)=O)[C@@H]1[C@H]1CC[C@@H]3[C@@]4(C)CC[C@H](OC(C)=O)C(C)(C)[C@@H]4CC[C@@]3(C)[C@]1(C)CC2 and give its recorded Ratio Ki.
Output: > 1.4

Input: Give Ratio Ki for CC(=O)O[C@H]1CC[C@]2(C)[C@H]3CC[C@@H]4[C@H]5[C@H](C(C)=O)CC[C@]5(C(N)=O)CC[C@@]4(C)[C@]3(C)CC[C@H]2C1(C)C
Output: > 1.2

Input: Hello, please tell me recorded Ratio Ki for this one: CC(=O)O[C@H]1CC[C@]2(C)[C@H]3CC[C@@H]4[C@H]5[C@H](C(C)=O)CC[C@]5(C(=O)O)CC[C@@]4(C)[C@]3(C)CC[C@H]2C1(C)C
Output: > 1.1
